Data provenance: ChEMBL document CHEMBL5038598

# TARGET_DESC: Receptor-type tyrosine-protein kinase FLT3 (Homo sapiens, UniProt P36888, D835V/ITD)
# PROTOCOL_NOTES: Binding affinity to human FLT3 ITD, D835V (V592/Y969) mutant expressed in mammalian system assessed as dissociation constant measured at 1 uM by DiscoveRx KINOMEscan assay
pKd: −log10 of the molar value.
Reported pKd values are given for each entry in this list.
ASSAY_READOUT: pKd

> print(dat)
                               input.smiles  result.number
1  Cc1c(Nc2nc(N)c3c(C#N)c(N4CCC[C@H]4C)n(C)c3n2)cnn1[C@H]1CCOC1           7.17
2  Cc1c(Nc2nc(N)c3c(C#N)c(N4CCC[C@H]4C)n(C)c3n2)cnn1[C@@H]1CCOC1           6.33

---

# TARGET_DESC: Leucine-rich repeat serine/threonine-protein kinase 2 (Mus musculus)
# PROTOCOL_NOTES: Inhibition of LRRK2-WT-pSER935 in C57BL/6 mouse brain at 10 to 150 mg/kg and measured after 1 hrs by western blotting
# Assay type: organism-based
Reported IC50 values are given for each entry in this list.
ASSAY_READOUT: IC50

> print(dat)
                               input.smiles                               target.desc  assay.readout  result
1  Cc1c(Nc2nc(N)c3c(C#N)c(N4CCC[C@H]4C)n(C)c3n2)cnn1[C@H]1CCOC1  Leucine-rich repeat serine/threonine-protein kinase 2 (Mus musculus)           IC50   23 nM
2  Cc1c(Nc2nc(N)c3c(C#N)c(N4CCC[C@H]4C)n(C)c3n2)cnn1[C@@H]1CCOC1  Leucine-rich repeat serine/threonine-protein kinase 2 (Mus musculus)           IC50   16 nM

---

# PROTOCOL_NOTES: Drug uptake in Mdr1a/ 1b-BCRP knockout C57BL/6 mouse plasma at 5 mg/kg, sc and measured after 0.5 hrs
# Format: ADME, organism-based
Reported concentration at 0.5 h values are given for each entry in this list.
ASSAY_READOUT: concentration at 0.5 h

> print(dat)
                               input.smiles           assay.readout      result
1  Cc1c(Nc2nc(N)c3c(C#N)c(N4CCC[C@H]4C)n(C)c3n2)cnn1[C@@H]1CCOC1  concentration at 0.5 h  1960 ng/mL
2  Cc1c(Nc2nc(N)c3c(C#N)c(N4CCC[C@H]4C)n(C)c3n2)cnn1[C@H]1CCOC1  concentration at 0.5 h  1600 ng/mL

---

# TARGET_DESC: Leucine-rich repeat serine/threonine-protein kinase 2 (Homo sapiens, UniProt Q5S007, G2019S)
# Sequence (Q5S007 whole entry G2019S, the tested form may be a part): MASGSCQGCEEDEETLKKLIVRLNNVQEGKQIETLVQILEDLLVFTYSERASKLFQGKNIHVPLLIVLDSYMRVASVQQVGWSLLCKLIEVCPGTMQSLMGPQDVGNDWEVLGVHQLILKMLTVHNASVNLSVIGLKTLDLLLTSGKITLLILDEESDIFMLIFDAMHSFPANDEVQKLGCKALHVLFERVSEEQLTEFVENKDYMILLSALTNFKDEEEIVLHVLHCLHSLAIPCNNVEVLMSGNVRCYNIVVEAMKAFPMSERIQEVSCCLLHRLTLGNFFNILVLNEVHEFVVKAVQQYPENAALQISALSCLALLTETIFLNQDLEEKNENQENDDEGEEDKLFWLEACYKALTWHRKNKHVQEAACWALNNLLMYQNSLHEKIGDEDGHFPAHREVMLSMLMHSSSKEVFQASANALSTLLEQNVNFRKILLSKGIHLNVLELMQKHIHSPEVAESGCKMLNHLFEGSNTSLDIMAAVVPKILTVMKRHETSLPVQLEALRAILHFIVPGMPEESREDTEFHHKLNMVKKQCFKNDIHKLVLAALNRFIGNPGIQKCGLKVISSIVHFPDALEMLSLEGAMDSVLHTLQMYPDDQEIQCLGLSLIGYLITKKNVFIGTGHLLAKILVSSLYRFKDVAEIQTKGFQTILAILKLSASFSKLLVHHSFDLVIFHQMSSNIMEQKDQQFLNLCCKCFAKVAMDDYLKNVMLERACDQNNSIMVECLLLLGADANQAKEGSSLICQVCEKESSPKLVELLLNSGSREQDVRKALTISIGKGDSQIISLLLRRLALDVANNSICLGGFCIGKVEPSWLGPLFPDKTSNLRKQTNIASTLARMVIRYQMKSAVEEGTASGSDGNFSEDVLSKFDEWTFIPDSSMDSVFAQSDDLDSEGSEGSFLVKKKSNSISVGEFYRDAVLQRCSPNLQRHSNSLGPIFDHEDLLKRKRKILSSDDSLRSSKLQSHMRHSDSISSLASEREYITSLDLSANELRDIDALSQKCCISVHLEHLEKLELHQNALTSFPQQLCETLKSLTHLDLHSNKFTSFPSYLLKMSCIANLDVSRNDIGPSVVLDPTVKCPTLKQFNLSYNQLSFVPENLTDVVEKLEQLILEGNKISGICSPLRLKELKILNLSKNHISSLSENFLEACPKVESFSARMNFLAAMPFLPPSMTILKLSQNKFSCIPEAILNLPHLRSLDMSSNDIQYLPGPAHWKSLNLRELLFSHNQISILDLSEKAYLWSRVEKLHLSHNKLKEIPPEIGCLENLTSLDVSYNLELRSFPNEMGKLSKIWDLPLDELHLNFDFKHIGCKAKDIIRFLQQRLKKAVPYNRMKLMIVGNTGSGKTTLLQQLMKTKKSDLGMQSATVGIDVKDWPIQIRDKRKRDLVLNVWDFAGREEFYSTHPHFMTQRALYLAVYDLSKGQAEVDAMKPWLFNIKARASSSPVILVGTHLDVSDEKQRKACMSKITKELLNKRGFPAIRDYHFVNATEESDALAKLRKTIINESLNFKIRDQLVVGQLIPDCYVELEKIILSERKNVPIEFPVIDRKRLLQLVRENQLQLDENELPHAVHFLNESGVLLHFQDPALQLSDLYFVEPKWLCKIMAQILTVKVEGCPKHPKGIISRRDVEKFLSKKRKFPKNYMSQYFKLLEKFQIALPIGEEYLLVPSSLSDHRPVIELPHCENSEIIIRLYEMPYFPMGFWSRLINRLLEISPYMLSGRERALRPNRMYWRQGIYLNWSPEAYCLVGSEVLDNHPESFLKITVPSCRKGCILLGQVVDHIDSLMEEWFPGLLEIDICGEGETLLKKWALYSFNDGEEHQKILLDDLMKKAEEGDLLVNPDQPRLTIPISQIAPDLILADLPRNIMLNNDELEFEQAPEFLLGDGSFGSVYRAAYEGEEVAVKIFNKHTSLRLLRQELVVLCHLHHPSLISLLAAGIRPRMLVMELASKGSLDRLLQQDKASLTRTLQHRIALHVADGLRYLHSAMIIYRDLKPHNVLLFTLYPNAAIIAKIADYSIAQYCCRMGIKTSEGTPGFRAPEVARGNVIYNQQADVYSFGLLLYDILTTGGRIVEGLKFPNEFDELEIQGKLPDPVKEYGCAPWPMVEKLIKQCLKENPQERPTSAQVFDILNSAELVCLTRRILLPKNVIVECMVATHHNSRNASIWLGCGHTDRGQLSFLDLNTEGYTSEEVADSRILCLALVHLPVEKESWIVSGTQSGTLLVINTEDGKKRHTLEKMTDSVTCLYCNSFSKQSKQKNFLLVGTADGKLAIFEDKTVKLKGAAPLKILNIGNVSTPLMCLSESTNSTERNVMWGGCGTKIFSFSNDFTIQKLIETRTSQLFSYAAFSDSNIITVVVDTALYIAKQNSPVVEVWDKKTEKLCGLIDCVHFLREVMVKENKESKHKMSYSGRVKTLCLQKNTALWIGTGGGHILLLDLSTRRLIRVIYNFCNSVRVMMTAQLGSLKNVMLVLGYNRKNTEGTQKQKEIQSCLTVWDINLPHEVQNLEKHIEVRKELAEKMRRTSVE
# PROTOCOL_NOTES: Inhibition of recombinant human GST tagged truncated LRRK2 G2019S mutant using fluorescein-labeled LRRKtide as substrate in presence of ATP preincubated for 50 mins followed by anti-phospho-LRRKtide antibody addition and measured after 30 mins by TR-FRET based Lanthascreen kinase activity assay
pIC50: −log10 of the molar value.
Reported pIC50 values are given for each entry in this list.
ASSAY_READOUT: pIC50

> print(dat)
                                input.smiles  result.number
 1  Cc1c(Nc2nc(N)c3c(C#N)c(N4CCC[C@H]4C)n(C)c3n2)cnn1[C@@H]1CCOC1           7.92
 2  Cc1c(Nc2nc(N)c3c(C#N)c(N4CCC[C@H]4C)n(C)c3n2)cnn1C1COC1           7.43
 3  C[C@@H]1CCCN1c1c(C#N)c2c(N)nc(Nc3cn(C)nc3Cl)nc2n1C           7.68
 4     Cn1c(-c2cccc(F)c2F)c(C#N)c2c(N)ncnc21           6.80
 5  Cc1c(Nc2nc(N)c3c(C#N)c(N4CCC[C@H]4C)n(C)c3n2)cnn1CC1(O)COC1           8.00
 6                         Nc1ncnc2[nH]ncc12           4.57
 7    C[C@@H]1CCCN1c1c(C#N)c2c(N)nc(N)nc2n1C           6.66
 8  Cc1c(Nc2nc(N)c3c(C#N)c(N4CCC[C@H]4C)n(C)c3n2)cnn1[C@H]1CCOC1           7.85
 9  C[C@@H]1CCCN1c1c(C#N)c2c(N)nc(Nc3cn(C)nc3C(F)(F)F)nc2n1C           6.45
10  C[C@@H]1CCCN1c1c(C#N)c2c(N)nc(Nc3cnn(C)c3)nc2n1C           8.30

---

# PROTOCOL_NOTES: Drug uptake in C57BL/6 WT mouse brain at 5 mg/kg, sc and measured after 0.5 hrs
# Type: ADME, organism-based
# MEASUREMENT_CONTEXT: C57BL/6, mouse, read-out: Drug uptake
ASSAY_READOUT: concentration at 0.5 h

> print(dat)
                               input.smiles           assay.readout   result
1  Cc1c(Nc2nc(N)c3c(C#N)c(N4CCC[C@H]4C)n(C)c3n2)cnn1[C@H]1CCOC1  concentration at 0.5 h  73 ng/g

---

# PROTOCOL_NOTES: Ratio of drug level in C57BL/6 WT mouse brain to plasma at 5 mg/kg, sc and measured after 1 hrs
# Format: ADME, organism-based
# MEASUREMENT_CONTEXT: C57BL/6, mouse
ASSAY_READOUT: Kp at 1 h

> print(dat)
                               input.smiles  result.number
1  Cc1c(Nc2nc(N)c3c(C#N)c(N4CCC[C@H]4C)n(C)c3n2)cnn1[C@H]1CCOC1           0.04

---

# TARGET_DESC: Leucine-rich repeat serine/threonine-protein kinase 2 (Homo sapiens)
# PROTOCOL_NOTES: Inhibition of LRRK2-pSer935 in LRRK2 WT expressing human HEK293 cells and measured after 48 hrs by ICW assay
# Assay type: cell-based
ASSAY_READOUT: IC50 (µM)

> print(dat)
                               input.smiles  result.number
1  Cc1nn(C2COC2)cc1Nc1nc(N)c2c(C#N)c(N3CCC[C@H]3C)n(C)c2n1           0.24
2  Cc1c(Nc2nc(N)c3c(C#N)c(N4CCC[C@H]4C)n(C)c3n2)cnn1C           0.31
3  Cc1c(Nc2nc(N)c3c(C#N)c(N4CCC[C@H]4C)n(C)c3n2)cnn1[C@@H]1CCOC1           0.18
4  C[C@@H]1CCCN1c1c(C#N)c2c(N)nc(Nc3cn(C)nc3Cl)nc2n1C           0.19
5  Cc1c(Nc2nc(N)c3c(C#N)c(N4CCC[C@H]4C)n(C)c3n2)cnn1CC(C)(C)O           0.28

---

pKd: −log10 of the molar value.
The following are reported pKd results, target or system Leucine-rich repeat serine/threonine-protein kinase 2 (Homo sapiens).
ASSAY_READOUT: pKd

> print(dat)
                               input.smiles  result.number
1  Cc1c(Nc2nc(N)c3c(C#N)c(N4CCC[C@H]4C)n(C)c3n2)cnn1[C@H]1CCOC1           8.18
2  Cc1c(Nc2nc(N)c3c(C#N)c(N4CCC[C@H]4C)n(C)c3n2)cnn1[C@@H]1CCOC1           8.43

---

# PROTOCOL_NOTES: Ratio of unbound drug level in Md1a deficient C57BL/6 mouse brain to plasma at 5 mg/kg, sc and measured after 0.5 hrs
# Format: ADME, organism-based
ASSAY_READOUT: Kp uu at 0.5 h

> print(dat)
                               input.smiles   assay.readout  result.number
1  Cc1c(Nc2nc(N)c3c(C#N)c(N4CCC[C@H]4C)n(C)c3n2)cnn1[C@@H]1CCOC1  Kp uu at 0.5 h           0.11

---

# PROTOCOL_NOTES: Drug uptake in mdrla-deficient C57BL/6 mouse plasma at 5 mg/kg, sc and measured after 0.5 hrs
# Assay type: ADME, organism-based
ASSAY_READOUT: concentration at 0.5 h (ng/mL)

> print(dat)
                               input.smiles           assay.readout  result.number
1  Cc1c(Nc2nc(N)c3c(C#N)c(N4CCC[C@H]4C)n(C)c3n2)cnn1[C@@H]1CCOC1  concentration at 0.5 h           2140

---

# TARGET_DESC: Phosphatidylinositol 4-kinase beta (Homo sapiens)
# Sequence (Q9UBF8 whole entry): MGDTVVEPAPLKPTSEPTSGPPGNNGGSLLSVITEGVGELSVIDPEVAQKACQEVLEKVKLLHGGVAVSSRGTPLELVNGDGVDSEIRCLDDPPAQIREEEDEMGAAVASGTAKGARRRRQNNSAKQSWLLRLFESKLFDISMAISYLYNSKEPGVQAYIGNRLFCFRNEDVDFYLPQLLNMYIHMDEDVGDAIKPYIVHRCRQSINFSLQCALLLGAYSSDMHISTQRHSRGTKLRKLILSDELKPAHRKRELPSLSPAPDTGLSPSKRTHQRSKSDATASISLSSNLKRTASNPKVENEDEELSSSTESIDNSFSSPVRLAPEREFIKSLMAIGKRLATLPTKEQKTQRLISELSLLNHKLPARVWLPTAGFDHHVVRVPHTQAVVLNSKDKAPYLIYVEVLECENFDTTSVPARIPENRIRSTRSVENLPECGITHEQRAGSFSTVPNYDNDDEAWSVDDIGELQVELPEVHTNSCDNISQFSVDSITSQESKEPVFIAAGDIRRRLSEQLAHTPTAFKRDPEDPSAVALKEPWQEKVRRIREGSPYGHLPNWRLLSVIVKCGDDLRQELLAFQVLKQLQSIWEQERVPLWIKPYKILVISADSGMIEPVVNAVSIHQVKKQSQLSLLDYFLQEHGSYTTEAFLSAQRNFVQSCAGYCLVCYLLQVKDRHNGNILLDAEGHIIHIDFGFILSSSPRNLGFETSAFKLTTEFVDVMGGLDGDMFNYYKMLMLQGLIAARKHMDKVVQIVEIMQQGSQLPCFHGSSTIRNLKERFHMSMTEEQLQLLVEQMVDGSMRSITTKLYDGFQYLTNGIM
pKd: −log10 of the molar value.
ASSAY_READOUT: pKd

> print(dat)
                               input.smiles  result.number
1  Cc1c(Nc2nc(N)c3c(C#N)c(N4CCC[C@H]4C)n(C)c3n2)cnn1[C@H]1CCOC1           6.14
2  Cc1c(Nc2nc(N)c3c(C#N)c(N4CCC[C@H]4C)n(C)c3n2)cnn1[C@@H]1CCOC1           6.07
